Value source: ChEMBL document CHEMBL4396908

pKi: −log10 of the molar value.
For reference, pKi measured on UniProt:Q16790:

Worked cases, answers included:
{"Structure smiles": "NS(=O)(=O)Oc1ccc(NC2=NC(=O)/C(=C\\c3ccc(F)cc3)S2)cc1", "Parameter": "pKi", "Val": "7.13 to 7.75"}
{"Structure smiles": "NS(=O)(=O)Oc1ccc(NC2=NC(=O)/C(=C\\c3ccc([N+](=O)[O-])cc3)S2)cc1", "Parameter": "pKi", "Val": "7.13 to 7.75"}

Let us move to another entry and its pKi.
Q: Check the records and state pKi for `NS(=O)(=O)Oc1ccc(NC2=NC(=O)/C(=C\c3cccc4ccccc34)S2)cc1`
Result: 7.13 to 7.75

----------
target: Steryl-sulfatase (Homo sapiens); test: Inhibition of steroid sulfatase in human MCF7 cells; format: cell-based
Below: a set of entries, each annotated with reported pIC50.
Would you please state pIC50, meaning minus log10 of the concentration in mol/L, as a bare number?

{"Structure smiles": "Cc1c(Cc2ccccc2)c(=O)oc2cc(OS(N)(=O)=O)ccc12", "pIC50": 9.00}

Q: Check the records and state pIC50 for `CCCCCCc1c(C)c2ccc(OS(N)(=O)=O)cc2oc1=O`
Result: 9.17

----------
target: Steryl-sulfatase (Homo sapiens); test: Inhibition of steroid sulfatase (unknown origin)
Parameter: pIC50
Would you please state pIC50, meaning minus log10 of the concentration in mol/L, as a bare number?

{"Structure smiles": "Cc1cc(=O)oc2cc(OS(N)(=O)=O)ccc12", "pIC50": 7.52}

Let us move to another entry and its pIC50.
Q: Check the records and state pIC50 for `NS(=O)(=O)Oc1ccc2c3c(c(=O)oc2c1)CCCCCC3`
Result: 9.00

----------
target: Carbonic anhydrase 1 (Homo sapiens, UniProt P00915)
Sequence (P00915 whole entry): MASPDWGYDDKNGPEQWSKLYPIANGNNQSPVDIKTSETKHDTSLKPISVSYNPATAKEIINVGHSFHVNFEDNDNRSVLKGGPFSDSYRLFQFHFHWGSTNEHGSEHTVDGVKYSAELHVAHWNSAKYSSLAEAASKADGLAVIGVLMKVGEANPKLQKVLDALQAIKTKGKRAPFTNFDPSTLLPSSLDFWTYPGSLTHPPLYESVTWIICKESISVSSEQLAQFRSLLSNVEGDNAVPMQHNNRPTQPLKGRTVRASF
Parameter: IC50 (nM)
Reply numerically in nM, unit not repeated.

Q: Check the records and state IC50 for `CC(C)[C@@H]1CC[C@@H](C)C[C@H]1OS(=O)(=O)NC(c1ccccc1)c1ccccc1`
Result: 44

----------
molecular target: UniProtKB P00918
Parameter: IC50 (nM)
Reply numerically in nM, unit not repeated.

Q: Check the records and state IC50 for `CC(C)[C@@H]1CC[C@@H](C)C[C@H]1OS(=O)(=O)NC(c1ccccc1)c1ccccc1`
Result: 16

----------
organism: Rattus norvegicus; assay: animal or person; conditions: Wistar, 3 h
Parameter: IC50 (nM)
Reply numerically in nM, unit not repeated.

Q: Check the records and state IC50 for `N#Cc1ccc(N(Cc2ccc3c(Br)c(OS(N)(=O)=O)ccc3c2)n2cnnc2)cc1`
Result: 205

----------
Below: a set of entries, each annotated with reported IC50.
target: Steryl-sulfatase (Homo sapiens); assay: Inhibition of human placental steroid sulfatase
Reply numerically in nM, unit not repeated.

{"Structure smiles": "NS(=O)(=O)Oc1ccc2ccc(=O)oc2c1", "Unit tag": "nM", "IC50": 2130}

Q: Check the records and state IC50 for `NS(=O)(=O)Oc1ccc(CCNC(=O)C(F)(F)C(F)(F)C(F)(F)C(F)(F)C(F)(F)C(F)(F)C(F)(F)C(F)(F)C(F)(F)C(F)(F)F)cc1`
Result: 2180

----------
Below: a set of entries, each annotated with reported IC50.
molecular target: Steryl-sulfatase (Homo sapiens); experiment: Inhibition of steroid sulfatase derived form human placental microsomes; design: species or system Placenta
// unit must come after the numeric part

{"Structure smiles": "Cc1c(Cc2ccccc2)c(=O)oc2cc(OS(N)(=O)=O)ccc12", "Val": "0.008 µM"}

Let us move to another entry and its IC50.
Q: Determine reported IC50 for `CCCCCCc1c(C)c2ccc(OS(N)(=O)=O)cc2oc1=O` ; test system: Steryl-sulfatase (Homo sapiens).
Result: 0.032 µM

----------
Biological target: Steryl-sulfatase (Homo sapiens)
Sequence (P08842 whole entry): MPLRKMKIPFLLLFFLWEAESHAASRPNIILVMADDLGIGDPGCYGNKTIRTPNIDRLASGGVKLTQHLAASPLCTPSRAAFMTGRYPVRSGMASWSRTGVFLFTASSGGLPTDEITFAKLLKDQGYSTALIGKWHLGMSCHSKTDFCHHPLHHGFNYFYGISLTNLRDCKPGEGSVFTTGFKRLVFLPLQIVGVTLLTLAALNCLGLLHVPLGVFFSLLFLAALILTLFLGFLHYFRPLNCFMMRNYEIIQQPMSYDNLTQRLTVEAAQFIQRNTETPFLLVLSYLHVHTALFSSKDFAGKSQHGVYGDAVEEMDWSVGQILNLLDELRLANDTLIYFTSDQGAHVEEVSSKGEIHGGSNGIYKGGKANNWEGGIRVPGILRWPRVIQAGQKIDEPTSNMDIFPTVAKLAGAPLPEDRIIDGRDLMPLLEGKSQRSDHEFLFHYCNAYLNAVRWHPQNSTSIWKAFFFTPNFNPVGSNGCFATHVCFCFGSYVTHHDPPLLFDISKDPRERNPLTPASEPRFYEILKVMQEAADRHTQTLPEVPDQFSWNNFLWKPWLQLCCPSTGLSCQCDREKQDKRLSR
Assay: Inhibition of steroid sulfatase (unknown origin) expressed in human MCF7 cells
Format: cell-based
pIC50: −log10 of the molar value.
Parameter: pIC50

Q: Check the records and state pIC50 for `NS(=O)(=O)Oc1ccc2nc(C=C3C4CC5CC(C4)CC3C5)oc2c1`
Result: 7.50 to 9.82
